assay.remarks: Viscosity responsiveness: fluorescence emission spectra of probes in glycerol and methanol
Format: physicochemical
experimental.context: probe 1×10^−5 M
endpoint.name: Fluorescence ratio in glycerol to methanol

COCCOCCOCCOCCOCCN(CCOC(=O)NCc1ccc(COc2nc(N)nc3[nH]cnc23)cc1)c1ccc(/C=C(\C#N)C(=O)OC(C)(C)C)cc1    405

I = CN(CCOC(=O)NCc1ccc(COc2cc(Cl)nc(N)n2)cc1)c1cc2sc(/C=C(\C#N)c3nc4ccccc4s3)cc2s1
II = CN(CCOC(=O)NCc1ccc(COc2nccc(N)n2)cc1)c1ccc2c(c1)sc1cc(/C=C(/C#N)c3nc4ccccc4o3)sc12
III = CC1=CC(C)(C)N(CCO)c2ccc(/C=C(\C#N)C(=O)NCc3ccc(COc4nc(N)nc5[nH]cnc45)cc3)cc21 [Reference Probe 106, reference compound]
IV = CN(CCOC(=O)NCc1ccc(COc2nc(N)nc3[nH]cnc23)cc1)c1cc2cc3sc(/C=C(\C#N)C(=O)OC(C)(C)C)cc3cc2s1
V = CN(CCOC(=O)NCc1ccc(COc2nccc(N)n2)cc1)c1ccc2cc(/C=C(\C#N)C(=O)OC(C)(C)C)sc2c1
Prompt: Arrange items by their Fluorescence ratio in glycerol to methanol values in increasing order. Respond with an ordered listing of the labels, as requested.
Response: IV, III, II, I, V
(IV: 131, III: 215, II: 391, I: 1123, V: 1774)
